This collection of values is drawn from patent US20150104459A1.

molecular target: recombinant soluble homotrimeric HA of A/Egypt/3300-NAMRU3/08 (H5N1) (Influenza A virus A/Egypt/3300-NAMRU3/2008 (H5N1)); assay: HA microarray, BCC supernatant; conditions: remark: other sources report otherwise
Recorded Trimeric HA Binding RLU values for a group of binders are listed next.
Answer in RLU, number only, no unit symbol.

BINDER: TCN-553 (5261_C18) (antibody, V domains shown) VH: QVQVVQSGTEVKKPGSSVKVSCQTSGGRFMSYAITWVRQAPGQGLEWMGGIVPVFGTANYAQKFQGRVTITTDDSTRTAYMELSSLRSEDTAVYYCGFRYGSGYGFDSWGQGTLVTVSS VL: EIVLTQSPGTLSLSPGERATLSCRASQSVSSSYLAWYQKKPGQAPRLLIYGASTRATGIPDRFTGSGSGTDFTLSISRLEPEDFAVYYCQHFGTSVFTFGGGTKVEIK
RESULT UNIT: RLU
Trimeric HA Binding RLU: 18800
//
BINDER: TCN-538 (3206_O17) (antibody, V domains shown) VH: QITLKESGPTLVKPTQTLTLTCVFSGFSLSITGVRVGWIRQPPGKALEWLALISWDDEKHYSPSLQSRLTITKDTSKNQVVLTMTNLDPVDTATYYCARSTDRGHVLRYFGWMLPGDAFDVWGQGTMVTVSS VL: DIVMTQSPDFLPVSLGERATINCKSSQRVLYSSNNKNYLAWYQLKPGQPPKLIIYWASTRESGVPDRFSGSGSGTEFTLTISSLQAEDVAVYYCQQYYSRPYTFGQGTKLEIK
RESULT UNIT: RLU
Trimeric HA Binding RLU: 23600
//
BINDER: TCN-540 (5060_F05) (antibody, V domains shown) VH: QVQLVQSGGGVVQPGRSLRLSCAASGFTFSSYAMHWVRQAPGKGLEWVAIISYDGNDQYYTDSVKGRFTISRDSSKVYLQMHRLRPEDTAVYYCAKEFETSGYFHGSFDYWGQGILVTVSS VL: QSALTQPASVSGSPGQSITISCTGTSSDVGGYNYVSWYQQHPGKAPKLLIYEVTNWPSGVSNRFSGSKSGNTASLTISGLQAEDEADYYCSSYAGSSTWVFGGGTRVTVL
RESULT UNIT: RLU
Trimeric HA Binding RLU: 1970
//
BINDER: TCN-534 (5249_B02) (antibody, V domains shown) VH: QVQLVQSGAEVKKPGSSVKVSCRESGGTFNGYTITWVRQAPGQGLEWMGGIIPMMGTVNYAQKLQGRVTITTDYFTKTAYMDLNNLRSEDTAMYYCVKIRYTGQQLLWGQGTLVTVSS VL: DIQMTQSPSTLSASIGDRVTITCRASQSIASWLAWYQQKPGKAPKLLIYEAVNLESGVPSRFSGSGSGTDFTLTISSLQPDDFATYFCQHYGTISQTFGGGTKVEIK
RESULT UNIT: RLU
Trimeric HA Binding RLU: 41400

Query: Any idea what Trimeric HA Binding RLU was measured for TCN-563 (5237_B21) (antibody, V domains shown) VH: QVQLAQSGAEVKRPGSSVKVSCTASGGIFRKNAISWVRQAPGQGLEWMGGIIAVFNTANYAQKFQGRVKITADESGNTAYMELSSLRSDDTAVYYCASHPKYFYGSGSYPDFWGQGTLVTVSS VL: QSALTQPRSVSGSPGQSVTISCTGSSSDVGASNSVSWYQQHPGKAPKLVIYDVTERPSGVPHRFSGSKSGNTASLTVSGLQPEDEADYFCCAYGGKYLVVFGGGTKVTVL ?
Reply: 27500
